Documented pIC50 across a set of molecules
Biological target: N-type calcium channel (Homo sapiens, UniProt Q00975)
Construct: expressed in transfected cells; host or cells: HEK 293
Sequence (Q00975 whole entry): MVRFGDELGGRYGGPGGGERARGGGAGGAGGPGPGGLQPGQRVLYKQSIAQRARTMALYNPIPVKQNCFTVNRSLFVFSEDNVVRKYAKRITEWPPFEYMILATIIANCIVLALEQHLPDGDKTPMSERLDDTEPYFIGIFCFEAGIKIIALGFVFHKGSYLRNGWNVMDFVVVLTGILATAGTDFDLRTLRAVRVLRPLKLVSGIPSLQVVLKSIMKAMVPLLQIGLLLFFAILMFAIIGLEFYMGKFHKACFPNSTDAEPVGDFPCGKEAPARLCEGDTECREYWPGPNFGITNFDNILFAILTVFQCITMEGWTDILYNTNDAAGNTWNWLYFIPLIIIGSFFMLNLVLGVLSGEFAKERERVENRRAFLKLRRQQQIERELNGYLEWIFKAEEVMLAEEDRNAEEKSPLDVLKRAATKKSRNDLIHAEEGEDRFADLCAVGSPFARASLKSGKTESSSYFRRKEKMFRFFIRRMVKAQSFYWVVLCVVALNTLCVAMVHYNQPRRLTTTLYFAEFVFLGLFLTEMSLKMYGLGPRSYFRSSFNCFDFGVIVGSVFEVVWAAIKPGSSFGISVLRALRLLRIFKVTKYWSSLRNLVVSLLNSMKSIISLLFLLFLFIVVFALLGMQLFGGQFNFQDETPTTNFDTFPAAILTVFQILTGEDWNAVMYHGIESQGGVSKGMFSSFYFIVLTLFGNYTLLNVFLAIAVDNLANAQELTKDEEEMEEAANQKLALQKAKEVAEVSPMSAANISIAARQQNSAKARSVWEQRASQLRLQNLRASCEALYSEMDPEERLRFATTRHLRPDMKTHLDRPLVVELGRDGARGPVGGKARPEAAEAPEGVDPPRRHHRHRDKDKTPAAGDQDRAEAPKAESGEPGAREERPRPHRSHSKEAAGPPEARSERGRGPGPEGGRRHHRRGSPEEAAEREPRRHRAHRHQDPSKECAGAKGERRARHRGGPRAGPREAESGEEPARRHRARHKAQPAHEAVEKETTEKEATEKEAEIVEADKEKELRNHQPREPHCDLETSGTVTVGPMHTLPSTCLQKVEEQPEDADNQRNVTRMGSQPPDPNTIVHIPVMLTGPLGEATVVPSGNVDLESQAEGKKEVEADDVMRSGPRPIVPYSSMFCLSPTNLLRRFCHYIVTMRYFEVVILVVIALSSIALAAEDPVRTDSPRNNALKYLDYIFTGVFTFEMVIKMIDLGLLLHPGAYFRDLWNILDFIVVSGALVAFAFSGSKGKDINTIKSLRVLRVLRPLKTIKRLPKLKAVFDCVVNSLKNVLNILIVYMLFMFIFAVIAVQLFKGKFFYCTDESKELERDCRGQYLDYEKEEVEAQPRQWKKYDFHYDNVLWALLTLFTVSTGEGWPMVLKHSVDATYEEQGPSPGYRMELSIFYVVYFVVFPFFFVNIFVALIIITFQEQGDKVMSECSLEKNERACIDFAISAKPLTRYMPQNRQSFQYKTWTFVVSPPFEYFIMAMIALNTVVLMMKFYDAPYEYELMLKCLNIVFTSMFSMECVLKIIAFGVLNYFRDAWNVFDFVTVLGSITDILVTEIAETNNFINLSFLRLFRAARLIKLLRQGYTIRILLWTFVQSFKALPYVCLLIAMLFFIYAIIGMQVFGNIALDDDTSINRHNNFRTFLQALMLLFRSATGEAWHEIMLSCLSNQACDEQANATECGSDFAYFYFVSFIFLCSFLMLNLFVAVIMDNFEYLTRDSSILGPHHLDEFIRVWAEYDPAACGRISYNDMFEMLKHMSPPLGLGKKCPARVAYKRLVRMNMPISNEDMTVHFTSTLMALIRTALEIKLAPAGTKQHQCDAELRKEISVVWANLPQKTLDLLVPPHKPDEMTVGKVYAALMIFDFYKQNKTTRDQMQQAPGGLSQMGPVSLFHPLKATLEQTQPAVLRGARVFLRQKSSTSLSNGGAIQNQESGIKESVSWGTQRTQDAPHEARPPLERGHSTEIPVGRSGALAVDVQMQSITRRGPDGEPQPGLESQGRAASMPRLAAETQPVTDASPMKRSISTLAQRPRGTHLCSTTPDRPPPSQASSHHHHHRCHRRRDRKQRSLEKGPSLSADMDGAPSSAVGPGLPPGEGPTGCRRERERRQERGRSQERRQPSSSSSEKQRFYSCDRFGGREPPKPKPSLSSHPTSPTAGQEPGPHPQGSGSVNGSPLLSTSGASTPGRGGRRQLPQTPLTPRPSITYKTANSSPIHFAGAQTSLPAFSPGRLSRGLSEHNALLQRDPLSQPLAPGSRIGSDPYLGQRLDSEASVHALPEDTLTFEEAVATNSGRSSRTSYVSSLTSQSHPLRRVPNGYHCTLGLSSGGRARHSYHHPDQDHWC
Sequence (P54289 25-956 partner limits assumed): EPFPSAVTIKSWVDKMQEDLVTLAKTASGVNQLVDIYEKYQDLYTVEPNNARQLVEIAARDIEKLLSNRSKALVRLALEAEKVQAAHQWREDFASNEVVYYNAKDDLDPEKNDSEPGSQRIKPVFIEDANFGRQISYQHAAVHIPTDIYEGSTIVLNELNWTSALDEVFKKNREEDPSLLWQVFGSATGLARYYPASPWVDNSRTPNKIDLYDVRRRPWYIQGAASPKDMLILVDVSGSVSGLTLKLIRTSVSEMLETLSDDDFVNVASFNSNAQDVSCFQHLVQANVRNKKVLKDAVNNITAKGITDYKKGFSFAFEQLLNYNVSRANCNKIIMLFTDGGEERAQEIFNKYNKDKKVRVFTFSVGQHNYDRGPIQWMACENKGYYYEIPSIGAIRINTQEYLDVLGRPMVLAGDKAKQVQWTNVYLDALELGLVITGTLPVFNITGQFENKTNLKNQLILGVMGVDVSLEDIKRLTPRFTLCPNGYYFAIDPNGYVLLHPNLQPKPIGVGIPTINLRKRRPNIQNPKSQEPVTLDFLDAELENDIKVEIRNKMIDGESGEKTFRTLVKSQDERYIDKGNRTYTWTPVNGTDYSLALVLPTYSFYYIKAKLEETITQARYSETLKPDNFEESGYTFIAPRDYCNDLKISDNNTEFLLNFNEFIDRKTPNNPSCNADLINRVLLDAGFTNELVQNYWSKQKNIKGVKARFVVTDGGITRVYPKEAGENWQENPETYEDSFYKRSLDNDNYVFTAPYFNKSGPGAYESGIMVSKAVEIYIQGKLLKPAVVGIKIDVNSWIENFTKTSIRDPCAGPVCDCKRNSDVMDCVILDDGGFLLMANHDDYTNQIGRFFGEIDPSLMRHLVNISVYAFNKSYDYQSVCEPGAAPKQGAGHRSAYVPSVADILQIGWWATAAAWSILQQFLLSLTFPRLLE
Sequence (P54289 957-1103 partner limits assumed): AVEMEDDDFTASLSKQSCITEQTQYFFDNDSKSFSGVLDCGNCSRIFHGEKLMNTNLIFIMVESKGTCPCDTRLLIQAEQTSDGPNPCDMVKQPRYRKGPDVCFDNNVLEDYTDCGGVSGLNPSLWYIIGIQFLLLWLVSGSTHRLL
Sequence (P54284 whole entry partner): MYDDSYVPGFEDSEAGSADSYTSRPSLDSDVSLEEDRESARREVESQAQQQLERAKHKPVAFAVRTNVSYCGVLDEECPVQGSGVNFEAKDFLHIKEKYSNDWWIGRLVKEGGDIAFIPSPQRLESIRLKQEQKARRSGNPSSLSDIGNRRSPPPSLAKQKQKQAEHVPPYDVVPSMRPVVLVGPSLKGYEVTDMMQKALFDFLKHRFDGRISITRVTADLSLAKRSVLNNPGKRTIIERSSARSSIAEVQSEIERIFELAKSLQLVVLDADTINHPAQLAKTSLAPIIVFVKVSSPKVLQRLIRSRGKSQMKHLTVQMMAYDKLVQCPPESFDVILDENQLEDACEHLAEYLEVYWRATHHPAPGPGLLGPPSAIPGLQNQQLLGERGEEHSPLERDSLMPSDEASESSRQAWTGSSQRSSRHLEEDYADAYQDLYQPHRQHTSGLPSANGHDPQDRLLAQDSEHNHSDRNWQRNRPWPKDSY
Experiment: Patch-Clamp blockade of voltage-dependent N-type calcium channels in recombinant HEK 293 cells
Format: cell-based
Conditions: Patch-Clamp technique, recombinant HEK 293 cells which express the N-type calcium channel; read-out: IC50 values
Text: The antinociceptive activity of the compounds of this invention is based on a blockade of the voltage-dependent N-type calcium channels. This inhibiting activity is detected electrophysiologically by the Patch-Clamp technique (cf: Improved patch-clamp techniques for high resolution current recording from cells and cell-free membrane patches; Hamill et al.; Pflügers Archiv, 391, 1981, 85-100) on recombinant HEK 293 cells which express the N-type calcium channel.
Units for pIC50: none; it is -log10 of a concentration expressed in mol/L.

# molecule, pIC50
data = [
    ("CNc1cc(-c2cccc(F)c2)nc2ccc3sc(C)nc3c12 [Example 6]", 5.70),
]

Now look at this entry.
Using the record for Cc1nc2c(ccc3nc(-c4cccc(F)c4)cc(N(C)C)c32)s1 [Example 4] , report its pIC50.
5.44
